Each entry below carries its recorded Tmax.
Test: Tmax in CD-1 mouse at 30 mg/kg, po measured after 24 hrs by LC-MS/MS analysis
Format: ADME, organism-based
Settings: in vivo
Just the number in min, nothing appended.

>>> print(df.to_string())
                           substance_smiles  readout_units  reported_measurement
0  CC(C)(C)c1cccc(C#N)c1OCC(=O)Nc1ccc(O)cc1            min                    15

Shift focus to the following entry.
stdin: Param item = `CC(C)(C)c1ccccc1OCC(=O)Nc1ccc(O)cc1` ; retrieve measured Tmax.
stdout: 15

* * *

We begin with a simple list: items and their reported AUC(0-t) at 24 h.
Assay: AUClast in CD-1 mouse at 30 mg/kg, ip measured after 24 hrs by LC-MS/MS analysis
Type: ADME, organism-based
Design: dose 30 mg/kg, time 24 hrs, route ip
Details: in vivo
API: value field is a number in ng·h/mL; no unit string.

>>> df
                      substance_smiles  readout_units  reported_measurement
0  CC(C)(C)c1ccccc1OCC(=O)Nc1ccc(O)cc1        ng·h/mL                  2510

Proceeding to the next compound to report its AUC(0-t) at 24 h.
stdin: Request the reported AUC(0-t) at 24 h associated with `CC(C)(C)c1cccc(C#N)c1OCC(=O)Nc1ccc(O)cc1`
stdout: 1330

* * *

Assay: Half life in CD-1 mouse at 30 mg/kg, ip measured after 24 hrs by LC-MS/MS analysis
Type: ADME, organism-based
Settings: in vivo
RECORDED_ENDPOINT: half-life (h)
Give the number; h is assumed, so skip it.

>>> df
                      substance_smiles  readout_units  reported_measurement
0  CC(C)(C)c1ccccc1OCC(=O)Nc1ccc(O)cc1              h                     3

In the following, a different compound is considered.
stdin: Requested read-out: half-life. Entry: `CC(C)(C)c1cccc(C#N)c1OCC(=O)Nc1ccc(O)cc1`
stdout: 1.05

* * *

Experiment: Cytoprotective activity against FK866- induced cell death in human U2OS cells assessed as increase in viable cells by measuring relative AUC at 10 uM incubated for […] by fluorometric analysis relative to NAT
Assay type: functional
RECORDED_ENDPOINT: Activity (%)
Numbers only here, please. The scale is %.

Field: example entries. Status: answers known.
>>> df
                           substance_smiles  reported_measurement
0   CC(C)(C)c1cc(Cl)ccc1OCC(=O)Nc1ccc(O)cc1                    32
1  COc1ccc(OCC(=O)Nc2ccc(O)cc2)c(C(C)(C)C)c1                   138
2    CC(C)(C)c1cccc(F)c1OCC(=O)Nc1ccc(O)cc1                   235
3               O=C(COc1ccccc1)Nc1ccc(O)cc1                    10
4    CC(C)(C)c1cc(O)ccc1OCC(=O)Nc1ccc(O)cc1                   149
5   CC(C)(C)c1cc(Br)ccc1OCC(=O)Nc1ccc(O)cc1                    40
6  COC(=O)c1ccc(OCC(=O)Nc2ccc(O)cc2)c(C(C)(C)C)c1                   133
7    CC(C)(C)c1ccc(F)cc1OCC(=O)Nc1ccc(O)cc1                   171
8  CC(C)(C)c1ccc(C#N)cc1OCC(=O)Nc1ccc(O)cc1                   206
9  CC(C)(C)c1cc(C#N)ccc1OCC(=O)Nc1ccc(O)cc1                   126

Let us examine a further case.
stdin: Which value of Activity has been reported for `CC(C)(C)c1cc(Cl)c(F)cc1OCC(=O)Nc1ccc(O)cc1` in the records?
stdout: 40

The measured values listed here are drawn from ChEMBL document CHEMBL5154841.
